- Measurement Target: T1, RNase R R572K (Escherichia coli, UniProt P21499 1-813, R572K)
- T1 sequence: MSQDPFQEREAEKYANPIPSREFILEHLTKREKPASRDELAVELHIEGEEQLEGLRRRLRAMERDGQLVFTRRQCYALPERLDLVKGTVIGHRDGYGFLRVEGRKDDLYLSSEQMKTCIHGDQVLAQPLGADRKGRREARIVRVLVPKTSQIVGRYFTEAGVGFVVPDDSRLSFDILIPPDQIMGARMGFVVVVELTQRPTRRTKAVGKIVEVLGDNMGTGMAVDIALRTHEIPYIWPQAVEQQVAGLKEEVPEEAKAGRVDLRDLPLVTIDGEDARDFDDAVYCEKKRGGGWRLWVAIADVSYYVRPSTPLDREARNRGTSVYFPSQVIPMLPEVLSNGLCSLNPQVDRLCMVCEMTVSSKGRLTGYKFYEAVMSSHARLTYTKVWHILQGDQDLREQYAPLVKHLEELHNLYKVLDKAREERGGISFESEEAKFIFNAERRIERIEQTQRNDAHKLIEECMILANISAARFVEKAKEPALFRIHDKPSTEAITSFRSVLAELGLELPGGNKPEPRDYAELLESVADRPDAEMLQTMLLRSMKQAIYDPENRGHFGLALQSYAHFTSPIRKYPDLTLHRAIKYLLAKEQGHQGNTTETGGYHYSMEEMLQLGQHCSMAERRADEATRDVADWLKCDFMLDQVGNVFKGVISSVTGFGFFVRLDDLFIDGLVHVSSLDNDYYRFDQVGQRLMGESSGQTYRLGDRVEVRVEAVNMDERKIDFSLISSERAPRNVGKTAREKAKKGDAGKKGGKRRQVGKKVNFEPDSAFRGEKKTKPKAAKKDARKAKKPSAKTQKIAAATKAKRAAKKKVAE
- Procedure Summary: filter binding
Measured Parameter: Kd (nM)
Use nM as the unit, but write only the number.

State the recorded Kd for this entry: AAAAAAAAAAAAAAAAA (ssRNA) [A17]
0.5
